# TESTED_SYSTEM: T1, Rhesus macaque CD4-HIS (Acro Biosystems, Cat. CD4-C52H7) (rhesus macaque, UniProt P16003 26-390)
# T1 construct: Bought reagent; also called Rhesus CD4; rhesus CD4-HIS; not shown: His tag
# T1 sequence (P16003 26-390 limits assumed): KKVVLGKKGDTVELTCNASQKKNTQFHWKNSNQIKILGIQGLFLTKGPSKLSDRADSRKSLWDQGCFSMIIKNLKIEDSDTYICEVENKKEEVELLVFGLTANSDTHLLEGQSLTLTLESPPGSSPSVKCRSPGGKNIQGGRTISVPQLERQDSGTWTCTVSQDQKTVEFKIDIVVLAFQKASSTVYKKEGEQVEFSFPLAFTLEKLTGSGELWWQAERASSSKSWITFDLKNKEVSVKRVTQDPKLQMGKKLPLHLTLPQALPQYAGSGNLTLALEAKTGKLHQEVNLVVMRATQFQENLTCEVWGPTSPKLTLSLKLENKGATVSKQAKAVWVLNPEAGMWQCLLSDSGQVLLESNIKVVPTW
# PROTOCOL_DETAILS: BLI (Octet Red384); Ab on anti-mouse Fc (AMC) sensor; rhesus CD4-HIS 100/50/25 nM; global 1:1 fit;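 also: antibodies loaded at 10 µg/mL, an unrelated mouse-derived antibody served as internal reference, curves fit over association and dissociation phases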
Some binders, each annotated with its measured koff.
MEASUREMENT_TYPE: koff (s⁻¹)

75110_12H17A (antibody, V domains shown, Tested as antibody purified from AlivaMab Mouse hybridoma supernatant (human variable domains, kappa; mouse Fc, captured on anti-mouse IgG Fc sensors); also called ADS75110 purified AMM Ab) VH: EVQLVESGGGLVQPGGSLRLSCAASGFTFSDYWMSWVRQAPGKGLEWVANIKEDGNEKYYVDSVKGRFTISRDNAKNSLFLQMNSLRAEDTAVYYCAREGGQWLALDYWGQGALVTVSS VL: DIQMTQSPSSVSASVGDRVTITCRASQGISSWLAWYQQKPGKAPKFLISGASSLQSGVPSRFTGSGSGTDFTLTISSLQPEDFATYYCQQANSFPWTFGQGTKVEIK | 0.0032
75110_10K21A (antibody, V domains shown, Tested as antibody purified from AlivaMab Mouse hybridoma supernatant (human variable domains, kappa; mouse Fc, captured on anti-mouse IgG Fc sensors); also called ADS75110 purified AMM Ab) VH: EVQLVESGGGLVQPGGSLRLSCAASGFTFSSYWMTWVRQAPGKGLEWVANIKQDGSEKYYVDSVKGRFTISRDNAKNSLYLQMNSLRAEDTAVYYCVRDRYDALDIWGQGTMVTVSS VL: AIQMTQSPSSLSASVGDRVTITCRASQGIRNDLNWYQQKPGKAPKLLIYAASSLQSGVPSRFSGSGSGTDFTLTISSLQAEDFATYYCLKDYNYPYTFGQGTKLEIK | 0.00033
75110_06D16A (antibody, V domains shown, Tested as antibody purified from AlivaMab Mouse hybridoma supernatant (human variable domains, kappa; mouse Fc, captured on anti-mouse IgG Fc sensors); also called ADS75110 purified AMM Ab) VH: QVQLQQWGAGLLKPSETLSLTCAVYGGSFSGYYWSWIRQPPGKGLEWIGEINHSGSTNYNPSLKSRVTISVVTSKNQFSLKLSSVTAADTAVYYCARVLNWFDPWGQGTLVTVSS VL: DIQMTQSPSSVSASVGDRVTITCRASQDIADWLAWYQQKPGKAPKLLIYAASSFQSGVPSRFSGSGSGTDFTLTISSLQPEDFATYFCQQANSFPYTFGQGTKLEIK | 0.022

This collection of values is drawn from patent US20220112288A1.
